Answer each item with its documented MIC Enterococcus faecium (GC 4556).
Tested on: Enterococcus sp.
Test: In vitro antibacterial evaluation: minimum inhibitory concentration (MIC), broth dilution method
Assay type: cell-based
Settings: strain GC 4556
One number for each entry, in µg/mL.

Worked set:
CC(c1ccccc1)C1NC(=O)CNC(=O)C(CO)NC(=O)C(CC2CN(Cc3ccccc3)C(=N)N2C2OC(CO)C(O)C(O)C2O)NC(=O)C(CC2CNC(=N)N2)NC(=O)C(Cc2ccc(OC3OC(CO)C(OC4OC5COC6(OC5C(O)C4O)C4CC5CC(C4)CC6C5)C(O)C3O)cc2)NC1=O (stereo not shown) [Example 80]; 64
CC(c1ccccc1)C1NC(=O)CNC(=O)C(CO)NC(=O)C(C(O)C2CN(Cc3ccc(C(C)(C)C)cc3)C(=N)N2C2OC(CO)C(O)C(O)C2O)NC(=O)C(C(O)C2CNC(=N)N2)NC(=O)C(Cc2ccc(OC3OC(CO)C(OC4OC5COC6(OC5C(O)C4O)C4CC5CC(C4)CC6C5)C(O)C3O)cc2)NC1=O (stereo not shown) [Example 77]; 16
CC(c1ccccc1)C1NC(=O)CNC(=O)C(CO)NC(=O)C(C(O)C2CNC(=N)N2C2OC(CO)C(O)C(O)C2O)NC(=O)C(C(O)C2CNC(=N)N2)NC(=O)C(Cc2ccc(OC3OC(CO)C(OC4OC5COC(c6ccc(C(C)(C)C)cc6)OC5C(O)C4O)C(O)C3O)cc2)NC1=O (stereo not shown) [Example 147]; 2
CC(C)=CCOc1cccc(C2OCC3OC(OC4C(CO)OC(Oc5ccc(CC6NC(=O)C(C(C)c7ccccc7)NC(=O)CNC(=O)C(CO)NC(=O)C(C(O)C7CNC(=N)N7C7OC(CO)C(O)C(O)C7O)NC(=O)C(C(O)C7CNC(=N)N7)NC6=O)cc5)C(O)C4O)C(O)C(O)C3O2)c1 (stereo not shown) [Example 165]; 16
CC(c1ccccc1)C1NC(=O)CNC(=O)C(CO)NC(=O)C(C(O)C2CNC(=N)N2C2OC(CO)C(O)C(O)C2O)NC(=O)C(C(O)C2CNC(=N)N2)NC(=O)C(Cc2ccc(OC3OC(CO)C(OC4OC(COC(=O)C(c5ccccc5)c5ccccc5)C(O)C(O)C4O)C(O)C3O)cc2)NC1=O (stereo not shown) [Example 96c]; 2
CCCC(CCC)C(=O)OCC1OC(Oc2ccc(CC3NC(=O)C(C(C)c4ccccc4)NC(=O)CNC(=O)C(CO)NC(=O)C(C(O)C4CNC(=N)N4C4OC(CO)C(O)C(O)C4O)NC(=O)C(C(O)C4CNC(=N)N4)NC3=O)cc2)C(O)C(O)C1OC1OC(CO)C(O)C(O)C1O (stereo not shown) [Example 99b]; 16
CC(c1ccccc1)C1NC(=O)CNC(=O)C(CO)NC(=O)C(C(O)C2CNC(=N)N2C2OC(CO)C(O)C(O)C2O)NC(=O)C(C(O)C2CNC(=N)N2)NC(=O)C(Cc2ccc(OC3OC(CO)C(OC4OC5COC(c6ccc(-c7ccc(Cl)cc7)cc6)OC5C(O)C4O)C(O)C3O)cc2)NC1=O (stereo not shown) [Example 178]; 4
CC(c1ccccc1)C1NC(=O)CNC(=O)C(CO)NC(=O)C(C(O)C2CNC(=N)N2C2OC(CO)C(O)C(O)C2O)NC(=O)C(C(O)C2CNC(=N)N2)NC(=O)C(Cc2ccc(OC3OC(CO)C(OC4OC5COC(c6ccc(-c7ccsc7)cc6)OC5C(O)C4O)C(O)C3O)cc2)NC1=O (stereo not shown) [Example 164]; 8
CC(c1ccccc1)C1NC(=O)CNC(=O)C(CO)NC(=O)C(C(O)C2CNC(=N)N2C2OC(CO)C(O)C(O)C2O)NC(=O)C(C(O)C2CNC(=N)N2)NC(=O)C(Cc2ccc(OC3OC(CO)C(OC4OC5COC(c6cccc(-c7ccccc7)c6)OC5C(O)C4O)C(O)C3O)cc2)NC1=O (stereo not shown) [Example 154]; 2
CCCCCCCN1CC(C(O)C2NC(=O)C(C(O)C3CNC(=N)N3)NC(=O)C(Cc3ccc(OC4OC(CO)C(OC5OC6COC7(OC6C(O)C5O)C5CC6CC(C5)CC7C6)C(O)C4O)cc3)NC(=O)C(C(C)c3ccccc3)NC(=O)CNC(=O)C(CO)NC2=O)N(C2OC(CO)C(O)C(O)C2O)C1=N (stereo not shown) [Example 83]; 4

I'm hoping you can list MIC Enterococcus faecium (GC 4556) for every compound here, please.
1. CCOc1cc(C2OCC3OC(OC4C(CO)OC(Oc5ccc(CC6NC(=O)C(C(C)c7ccccc7)NC(=O)CNC(=O)C(CO)NC(=O)C(C(O)C7CNC(=N)N7C7OC(CO)C(O)C(O)C7O)NC(=O)C(C(O)C7CNC(=N)N7)NC6=O)cc5)C(O)C4O)C(O)C(O)C3O2)ccc1[N+](=O)[O-] (stereo not shown) [Example 167]
2. CSc1ccc(C2OCC3OC(OC4C(CO)OC(Oc5ccc(CC6NC(=O)C(C(C)c7ccccc7)NC(=O)CNC(=O)C(CO)NC(=O)C(C(O)C7CNC(=N)N7C7OC(CO)C(O)C(O)C7O)NC(=O)C(C(O)C7CNC(=N)N7)NC6=O)cc5)C(O)C4O)C(O)C(O)C3O2)cc1 (stereo not shown) [Example 144]
3. COc1cccc(C2OC3C(OC4C(CO)OC(Oc5ccc(CC6NC(=O)C(C(C)c7ccccc7)NC(=O)CNC(=O)C(CO)NC(=O)C(C(O)C7CNC(=N)N7C7OC(CO)C(O)C(O)C7O)NC(=O)C(C(O)C7CNC(=N)N7)NC6=O)cc5)C(O)C4O)OC(CO)C(O)C3O2)c1 (single isomer, unassigned) [Example 137b]
4. CCCc1ccc(C2OCC3OC(OC4C(CO)OC(Oc5ccc(CC6NC(=O)C(C(C)c7ccccc7)NC(=O)CNC(=O)C(CO)NC(=O)C(C(O)C7CNC(=N)N7C7OC(CO)C(O)C(O)C7O)NC(=O)C(C(O)C7CNC(=N)N7)NC6=O)cc5)C(O)C4O)C(O)C(O)C3O2)cc1 (stereo not shown) [Example 140]

A)
1. 32
2. 2
3. 32
4. 1

----------
System: Staphylococcus sp.
Assay: In vitro antibacterial evaluation: minimum inhibitory concentration (MIC), broth dilution method
Assay type: cell-based
Conditions: broth dilution, 5×10^5 CFU/mL, 18 hours at 35° C.
Answer each item with its documented MIC Staphylococcus aureus (GC 4544).
Give bare numbers, in µg/mL.

COc1cccc(C2OC3C(OC4C(CO)OC(Oc5ccc(CC6NC(=O)C(C(C)c7ccccc7)NC(=O)CNC(=O)C(CO)NC(=O)C(C(O)C7CNC(=N)N7C7OC(CO)C(O)C(O)C7O)NC(=O)C(C(O)C7CNC(=N)N7)NC6=O)cc5)C(O)C4O)OC(CO)C(O)C3O2)c1 (single isomer, unassigned) [Example 137b]; 16

I'm hoping you can list MIC Staphylococcus aureus (GC 4544) for every molecule here, please.
1. CSc1ccc(C2OCC3OC(OC4C(CO)OC(Oc5ccc(CC6NC(=O)C(C(C)c7ccccc7)NC(=O)CNC(=O)C(CO)NC(=O)C(C(O)C7CNC(=N)N7C7OC(CO)C(O)C(O)C7O)NC(=O)C(C(O)C7CNC(=N)N7)NC6=O)cc5)C(O)C4O)C(O)C(O)C3O2)cc1 (stereo not drawn)
2. CC(c1ccccc1)C1NC(=O)CNC(=O)C(CO)NC(=O)C(C(O)C2CNC(=N)N2C2OC(CO)C(O)C(O)C2O)NC(=O)C(C(O)C2CNC(=N)N2)NC(=O)C(Cc2ccc(OC3OC(CO)C(OC4OC5COC(c6ccc7ccccc7c6)OC5C(O)C4O)C(O)C3O)cc2)NC1=O (stereo not drawn)

A)
4
1

----------
System: Staphylococcus sp.
Assay: In vitro antibacterial evaluation: minimum inhibitory concentration (MIC), broth dilution method
Format: cell-based
Conditions: strain GC 3051
Answer each item with its documented MIC Staphylococcus aureus (GC 3051).
Answers are plain numbers, in µg/mL.

Worked set:
N=C1NCC(C(O)C2NC(=O)C(CC3CCC(OC4OC(CO)C(OC5OC6COC7(OC6C(O)C5O)C5CC6CC(C5)CC7C6)C(O)C4O)CC3)NC(=O)C(CC3CCCCC3)NC(=O)CNC(=O)C(CO)NC(=O)C(C(O)C3CNC(=N)N3C3OC(CO)C(O)C(O)C3O)NC2=O)N1 (stereo not drawn); 64
CC(c1ccccc1)C1NC(=O)CNC(=O)C(CO)NC(=O)C(C(O)C2CNC(=N)N2C2OC(CO)C(O)C(O)C2O)NC(=O)C(C(O)C2CNC(=N)N2)NC(=O)C(Cc2ccc(OC3OC(CO)C(OC4OC5COC6(OC5C(O)C4O)C4CCCC6CCC4)C(O)C3O)cc2)NC1=O (stereo not drawn); 2

Proceed to the following item.
Q) Look up MIC Staphylococcus aureus (GC 3051): CC(C)=CCCC(C)CC1OCC2OC(OC3C(CO)OC(Oc4ccc(CC5NC(=O)C(C(C)c6ccccc6)NC(=O)CNC(=O)C(CO)NC(=O)C(C(O)C6CNC(=N)N6C6OC(CO)C(O)C(O)C6O)NC(=O)C(C(O)C6CNC(=N)N6)NC5=O)cc4)C(O)C3O)C(O)C(O)C2O1 (stereo not drawn)
A) 8

The reported measurements were obtained from patent US8247211B2.
